- tested_system: T1, human EphA4 (Homo sapiens, UniProt P54764)
- T1 construct: made in house; not restated for the human SEAP-His protein
- T1 sequence (P54764 20-547): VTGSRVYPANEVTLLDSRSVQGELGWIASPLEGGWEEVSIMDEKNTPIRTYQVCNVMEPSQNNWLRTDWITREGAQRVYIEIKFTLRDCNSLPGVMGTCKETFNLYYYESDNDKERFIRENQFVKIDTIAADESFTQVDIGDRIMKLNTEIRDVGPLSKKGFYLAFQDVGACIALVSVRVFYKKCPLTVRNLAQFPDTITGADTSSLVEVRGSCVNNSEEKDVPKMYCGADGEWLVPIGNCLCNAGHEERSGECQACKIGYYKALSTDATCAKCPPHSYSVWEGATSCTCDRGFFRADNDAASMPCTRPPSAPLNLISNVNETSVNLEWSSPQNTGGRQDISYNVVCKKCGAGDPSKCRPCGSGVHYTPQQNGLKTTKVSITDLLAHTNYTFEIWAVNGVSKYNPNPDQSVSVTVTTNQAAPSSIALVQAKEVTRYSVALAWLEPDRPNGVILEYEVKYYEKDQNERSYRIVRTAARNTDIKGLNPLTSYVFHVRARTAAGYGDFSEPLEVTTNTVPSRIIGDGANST
- assay_protocol: Affinity of humanized antibodies by SPR (Biacore T200)
- Format: binding
- conditions: human EphA4 extracellular region-SEAP-His; 1:1 binding model
// reported ka for each item listed
Numeric only. Scale: M⁻¹ s⁻¹

Sample records with ka:
molecule	ka (M⁻¹ s⁻¹)
88 (antibody, V domains shown, constant regions without entry; synthetic humanized antibody light chain variable region sequence; synthetic humanized antibody heavy chain variable region sequence) VL: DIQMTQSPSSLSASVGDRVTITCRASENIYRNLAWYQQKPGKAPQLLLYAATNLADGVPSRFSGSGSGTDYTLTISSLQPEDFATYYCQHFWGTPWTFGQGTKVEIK VH: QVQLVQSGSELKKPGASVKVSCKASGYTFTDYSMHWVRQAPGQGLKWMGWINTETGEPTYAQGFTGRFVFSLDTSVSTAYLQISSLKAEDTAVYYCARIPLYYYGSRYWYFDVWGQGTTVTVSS	300000
142 (antibody, V domains shown, synthetic humanized antibody heavy chain variable region sequence; synthetic humanized antibody light chain variable region sequence) VH: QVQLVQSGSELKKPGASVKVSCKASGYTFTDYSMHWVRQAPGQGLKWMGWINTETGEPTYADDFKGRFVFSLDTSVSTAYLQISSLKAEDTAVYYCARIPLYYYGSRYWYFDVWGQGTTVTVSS VL: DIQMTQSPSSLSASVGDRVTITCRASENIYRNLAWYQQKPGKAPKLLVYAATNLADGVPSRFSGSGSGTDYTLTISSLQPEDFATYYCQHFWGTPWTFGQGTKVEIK	340000
160 (antibody, V domains shown, synthetic humanized antibody heavy chain variable region sequence; synthetic humanized antibody light chain variable region sequence) VH: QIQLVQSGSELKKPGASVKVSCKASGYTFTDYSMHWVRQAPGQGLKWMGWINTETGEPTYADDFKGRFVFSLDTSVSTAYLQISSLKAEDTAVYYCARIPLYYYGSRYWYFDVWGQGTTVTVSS VL: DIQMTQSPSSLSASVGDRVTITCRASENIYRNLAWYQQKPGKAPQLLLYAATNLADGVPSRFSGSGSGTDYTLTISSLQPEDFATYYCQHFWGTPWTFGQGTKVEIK	320000

# input for lookup
Q. Which ka value belongs to 140 (antibody, V domains shown, synthetic humanized antibody heavy chain variable region sequence; synthetic humanized antibody light chain variable region sequence) VH: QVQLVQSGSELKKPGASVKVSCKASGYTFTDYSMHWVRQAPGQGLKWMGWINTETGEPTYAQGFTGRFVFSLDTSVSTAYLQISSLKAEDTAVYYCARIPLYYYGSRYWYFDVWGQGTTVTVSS VL: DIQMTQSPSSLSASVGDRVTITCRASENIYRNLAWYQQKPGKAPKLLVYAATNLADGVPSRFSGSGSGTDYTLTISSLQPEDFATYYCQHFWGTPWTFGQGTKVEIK ?
A. 320000

Source listed as patent US10428140B2.
